Reference for the values: patent US12570642B2

# MEASUREMENT_NOTES: Pharmacokinetic (PK) studies, in vivo monkey oral PK
# Set-up: species or system Cynomolgus monkeys
# SETTINGS: plasma; Cynomolgus monkey, single oral dose 2 mg/kg; read-out: F % (oral bioavailability)
MEASUREMENT_TYPE: bioavailability (%)
Write it as a number; the unit % goes unstated.

Record summary for CC1(C)COC[C@H]1n1c(Cc2cc(F)c(-c3cccc(OCc4ccc(C#N)cc4F)n3)cc2F)nc2ccc(C(=O)O)cc21 [Example 60] : reported bioavailability = 47.6

Record summary for CC1(C)COC[C@H]1n1c(Cc2cc(F)c(-c3cccc(OCc4ccc(Cl)cc4F)n3)cc2F)nc2ccc(C(=O)O)cc21 [Example 115] : reported bioavailability = 42

Record summary for CC1(C)COC[C@H]1n1c(Cc2cc(F)c(-c3cccc(OCc4ccc(C#N)cc4)n3)cc2F)nc2ccc(C(=O)O)cc21 [Example 119] : reported bioavailability = 47.6

Record summary for N#Cc1ccc(COc2cccc(-c3cc(F)c(Cc4nc5ccc(C(=O)O)cc5n4C[C@@H]4CCO4)cc3F)n2)c(F)c1 [CE-2, reference compound] : reported bioavailability = 27.4

Record summary for CC1(C)COC[C@H]1n1c(Cc2cc(F)c(-c3ccnc(OCc4ccc(Cl)cc4F)n3)cc2F)nc2c(F)cc(C(=O)O)cc21 [Example 117] : reported bioavailability = 52.2
